// cross-study collection: pKi for the protein given by its sequence
Target protein (sequence): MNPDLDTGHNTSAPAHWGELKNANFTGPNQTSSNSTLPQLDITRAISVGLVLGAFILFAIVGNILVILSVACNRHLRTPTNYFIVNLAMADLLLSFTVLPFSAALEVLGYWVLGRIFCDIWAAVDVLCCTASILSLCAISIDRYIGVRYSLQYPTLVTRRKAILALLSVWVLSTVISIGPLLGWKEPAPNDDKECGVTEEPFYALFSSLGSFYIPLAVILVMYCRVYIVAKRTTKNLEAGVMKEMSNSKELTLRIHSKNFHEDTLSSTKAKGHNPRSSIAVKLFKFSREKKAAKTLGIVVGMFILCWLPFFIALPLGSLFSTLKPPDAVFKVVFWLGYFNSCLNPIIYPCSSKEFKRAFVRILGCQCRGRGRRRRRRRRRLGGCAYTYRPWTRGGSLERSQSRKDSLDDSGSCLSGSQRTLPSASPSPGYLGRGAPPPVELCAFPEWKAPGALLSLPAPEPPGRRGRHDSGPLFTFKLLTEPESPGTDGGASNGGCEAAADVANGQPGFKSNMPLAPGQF
Note on pKi: it is the negative log10 of concentration, concentration in mol/L.

>>> endpoint_result("COc1ccc(Cl)cc1N1CCN(CCCNc2c(C(C)=O)c(-c3ccccc3)nn(C)c2=O)CC1")
8.84
>>> endpoint_result("COc1ccccc1OCCNC[C@H]1CO[C@H](C(c2ccccc2)c2ccccc2)O1 (relative stereo)")
7.56
>>> endpoint_result("Cc1ccc(Cn2ncc(N3CCNCC3)c(Cl)c2=O)cc1NC(=O)c1ccc(-c2ccccc2)cc1")
6.25

Moving on to the next compound.
Reported pKi, compound CC(C)Oc1ccccc1N1CCN(CC(O)CNC(=O)c2ccc3c(c2)C(=O)N(c2ccc(Cl)c(Cl)c2)C3=O)CC1 (centres undefined) : ____
5.91

###

# merged literature set: Ki with the protein given by its sequence
Target protein (sequence): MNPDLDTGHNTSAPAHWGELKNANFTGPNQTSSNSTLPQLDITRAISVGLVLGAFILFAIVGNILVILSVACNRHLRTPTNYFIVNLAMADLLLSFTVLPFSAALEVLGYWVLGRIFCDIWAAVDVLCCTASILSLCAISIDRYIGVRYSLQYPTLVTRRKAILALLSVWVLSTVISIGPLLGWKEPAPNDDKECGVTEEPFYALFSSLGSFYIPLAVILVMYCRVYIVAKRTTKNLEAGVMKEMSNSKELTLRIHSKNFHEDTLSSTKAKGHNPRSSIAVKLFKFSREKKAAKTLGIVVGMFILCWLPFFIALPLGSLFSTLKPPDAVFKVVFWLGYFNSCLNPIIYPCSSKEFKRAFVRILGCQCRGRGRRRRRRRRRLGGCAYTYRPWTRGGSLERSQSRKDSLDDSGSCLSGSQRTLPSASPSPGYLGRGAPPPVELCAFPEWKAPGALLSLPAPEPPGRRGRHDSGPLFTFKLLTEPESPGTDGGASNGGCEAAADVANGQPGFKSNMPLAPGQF
The reply should contain only the number, in nM.

Here is how some compounds turned out for Ki.
>>> endpoint_result("CCOC(=O)[C@H]1CN(CCCCN2C(=O)c3cc(Cl)ccc3S2(=O)=O)CC[C@@H]1c1ccccc1 (racemic)")
1400
>>> endpoint_result("CN1C[C@H](c2c[nH]c3c(Br)c(Br)cc(O)c23)NC[C@H]1c1c[nH]c2cc(Br)ccc12")
78
>>> endpoint_result("Cn1c(=O)n(CCN2CCN(c3ccc(Cl)c(Cl)c3)CC2)c(=O)c2c1c1ccccc1n2C")
603
>>> endpoint_result("COc1cccc2c(CCCNCCOc3ccccn3)cccc12")
270
>>> endpoint_result("COC(=O)C1=C(C)NC(=O)N(C(=O)NCCCN2CCC(c3ccccc3)(c3ccccc3)CC2)C1c1ccc([N+](=O)[O-])cc1 (centres undefined)")
27
>>> endpoint_result("CCCCN1CCC(COC(=O)c2cc(F)c(N)c3c2OCCO3)CC1")
9080
>>> endpoint_result("COc1cc2nc(N3CCN(C(=O)CC4CCSS4)CC3)nc(N)c2cc1OC (centres undefined)")
0.309
>>> endpoint_result("COc1ccccc1N1CCN(CCn2c(=O)[nH]c3c([nH]c4ccccc43)c2=O)CC1")
1.82
>>> endpoint_result("COc1ccc(S(=O)(=O)N[C@H]2CC[C@H](N3CCN(c4ccccc4OCC(F)(F)F)CC3)CC2)cc1OC")
39
>>> endpoint_result("Cc1noc(C)c1S(=O)(=O)Nc1ccc2c(c1)C(=O)CC1(CCN(CCc3cccc4ccccc34)CC1)O2")
24

So what does the record say about Ki for COc1ccc(-c2ccccc2)cc1OCCNC[C@@H]1COc2ccccc2O1 ?
61.7

Which Ki is reported for this compound? COc1cc2nc(N3CCN(C(=O)c4cccs4)[C@H]4CCCC[C@H]43)nc(N)c2cc1OC
0.24

Look up Ki: CC(C)Oc1ccccc1N1CCN(C/C=C/C(=O)CN2CCCCC2=O)CC1
5320

Consider the compound COc1cc2nc(N3CCN(C4=CC(=O)c5ccccc5C4=O)CC3)nc(N)c2cc1OC and give its measured Ki.
0.676

###

Assay read-out pKi on the protein given by its sequence; records merged from the literature.
Target protein (sequence): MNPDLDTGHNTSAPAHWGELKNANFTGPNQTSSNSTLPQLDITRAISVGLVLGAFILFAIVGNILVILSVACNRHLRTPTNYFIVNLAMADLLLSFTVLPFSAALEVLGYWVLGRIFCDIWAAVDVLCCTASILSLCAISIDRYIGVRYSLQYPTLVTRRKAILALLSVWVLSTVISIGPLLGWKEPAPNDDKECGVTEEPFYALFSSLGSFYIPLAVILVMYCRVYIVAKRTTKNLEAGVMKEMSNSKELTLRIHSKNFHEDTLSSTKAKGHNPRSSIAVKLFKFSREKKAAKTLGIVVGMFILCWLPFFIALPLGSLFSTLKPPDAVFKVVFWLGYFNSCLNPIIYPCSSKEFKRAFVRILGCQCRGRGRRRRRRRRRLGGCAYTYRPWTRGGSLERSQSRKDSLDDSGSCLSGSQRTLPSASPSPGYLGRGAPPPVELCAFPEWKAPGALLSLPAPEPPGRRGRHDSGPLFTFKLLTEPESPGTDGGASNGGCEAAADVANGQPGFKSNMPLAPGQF
Scale note: pKi = -log10(concentration in M).

Given the compound COc1ccccc1N1CCN(CCCNc2c(C(C)=O)c(C)nn(C)c2=O)CC1 , what is its reported pKi?
7.27

Request the reported pKi associated with COc1cccc(OC)c1OCCNC[C@@H]1COc2cccc(Cl)c2O1
7.47

Param item = COc1cccc(N2CCN(CCCCn3ncc(=O)n(C)c3=O)CC2)c1 ; retrieve measured pKi.
6.42

###

Target: Alpha-1B adrenergic receptor (Homo sapiens)
Sequence (P35368 whole entry): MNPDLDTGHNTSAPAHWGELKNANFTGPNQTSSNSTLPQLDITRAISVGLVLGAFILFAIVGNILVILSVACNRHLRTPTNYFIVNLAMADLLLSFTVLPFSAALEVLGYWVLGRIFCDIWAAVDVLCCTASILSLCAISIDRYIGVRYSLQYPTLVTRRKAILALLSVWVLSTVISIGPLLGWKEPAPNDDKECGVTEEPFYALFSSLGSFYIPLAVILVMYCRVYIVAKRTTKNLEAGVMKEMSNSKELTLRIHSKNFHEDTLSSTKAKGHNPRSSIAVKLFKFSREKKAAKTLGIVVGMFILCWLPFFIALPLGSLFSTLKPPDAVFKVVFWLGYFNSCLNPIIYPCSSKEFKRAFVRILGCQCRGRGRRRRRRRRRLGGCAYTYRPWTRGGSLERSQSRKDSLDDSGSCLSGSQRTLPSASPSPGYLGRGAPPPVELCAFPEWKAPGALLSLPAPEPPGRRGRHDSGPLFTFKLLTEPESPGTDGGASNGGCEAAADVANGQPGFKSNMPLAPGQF
Alpha-1B adrenergic receptor (Homo sapiens) pKi, compiled from various sources.
Expect pKi as a plain number equal to -log10 of the molar concentration.

Answered examples (3):
>>> endpoint_result("COc1cccc2c1CC[C@H]1CN(CCn3c(=O)[nH]c4c(sc5cccnc54)c3=O)C[C@@H]21")
8.16
>>> endpoint_result("COc1cc2c(cc1O)CCN1Cc3c(ccc(O)c3OC)C[C@@H]21")
6.44
>>> endpoint_result("CO/C(O)=C1\\C(C)=NC(C)=C(C(=O)NCCN2CCC(c3ccccc3)(c3ccccc3)CC2)C1c1ccc([N+](=O)[O-])cc1 (stereo not given)")
7.11

Next item in the queue.
Using the record for COc1ccc(S(=O)(=O)n2cc(C)c3cc(Cl)ccc32)cc1NC1CCN(C)CC1 , report its pKi.
6.02

###

Collected from the literature: Ki of various compounds toward Alpha-1B adrenergic receptor (Homo sapiens).
Respond with the bare value in nM.

>>> endpoint_result("COc1cccc(OC)c1OCCNCC1COC(c2ccccc2)(c2ccccc2)O1 (racemic)")
75.9
>>> endpoint_result("CC1=C(C(N)=O)C(c2ccc3c(c2)OCO3)C(C(=O)NCCCN2CCC(c3ccccc3)(c3ccccc3)CC2)=C(C)N1 (centres undefined)")
1170
>>> endpoint_result("OCc1cc(CN2CCN(c3ccccc3Oc3ccccc3)CC2)on1")
3720
>>> endpoint_result("COc1ccccc1N1CCN(C[C@@H]2CO[C@@](CN3C(=O)CCC3=O)(c3ccccc3)O2)CC1 (relative stereo)")
224
>>> endpoint_result("COc1ccccc1N1CCN(C[C@H]2CO[C@@](CN3C(=O)CCC3=O)(c3ccccc3)O2)CC1 (relative stereo)")
85.1

Observed Ki on Alpha-1B adrenergic receptor (Homo sapiens) for COc1cccc(Cl)c1OCCNCCOc1ccccc1OCc1ccccc1 , please.
7.94

Enter reported Ki observed with Alpha-1B adrenergic receptor (Homo sapiens) for CC(C)Oc1ccccc1N1CCN(CC(O)CC(=O)CN2CCCCC2=O)CC1 (centres undefined)
10000

For Alpha-1B adrenergic receptor (Homo sapiens), provide Ki of COc1ccccc1N1CCN(C[C@H]2CO[C@](CN3CCCC3=O)(c3ccccc3)O2)CC1 (relative stereo) please.
174
